The reported measurements were obtained from paper PMC11778240.

Biological target: PKC-β-I (Homo sapiens, UniProt P05771)
Construct: purchased Invitrogen
Sequence (P05771 whole entry): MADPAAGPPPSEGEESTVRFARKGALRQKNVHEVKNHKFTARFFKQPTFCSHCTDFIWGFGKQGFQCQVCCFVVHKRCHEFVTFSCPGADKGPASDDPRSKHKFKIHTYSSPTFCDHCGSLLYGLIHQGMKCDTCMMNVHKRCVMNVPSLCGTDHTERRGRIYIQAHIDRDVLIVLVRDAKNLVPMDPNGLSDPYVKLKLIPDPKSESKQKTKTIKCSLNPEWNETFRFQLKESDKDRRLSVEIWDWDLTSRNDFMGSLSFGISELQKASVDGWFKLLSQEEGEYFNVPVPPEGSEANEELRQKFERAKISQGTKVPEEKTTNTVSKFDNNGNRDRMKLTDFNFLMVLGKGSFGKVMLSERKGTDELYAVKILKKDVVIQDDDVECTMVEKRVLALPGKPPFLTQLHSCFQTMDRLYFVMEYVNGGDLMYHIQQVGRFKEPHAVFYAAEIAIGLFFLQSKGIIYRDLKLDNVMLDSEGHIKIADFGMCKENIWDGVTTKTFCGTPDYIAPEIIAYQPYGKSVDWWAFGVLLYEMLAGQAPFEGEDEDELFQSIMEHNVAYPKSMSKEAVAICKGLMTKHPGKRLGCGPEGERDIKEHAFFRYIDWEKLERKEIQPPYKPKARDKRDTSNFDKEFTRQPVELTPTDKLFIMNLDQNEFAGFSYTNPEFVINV
Assay: Cell-free PKC competition binding assay against 3H-PDBu
Conditions: HotNM 2.5; HotKdNM 0.37; supplement fit; read-out: Ki (best-fit value), PKC-β-I
pKi: −log10 of the molar value.

molecule	pKi
C/C=C(\C)C(=O)O[C@@H]1[C@@H](C)[C@@]2(O)[C@H]([C@@H]3C(C)(C)[C@]13OC(=O)C1CCC1)[C@@H]1O[C@]1(CO)[C@@H](O)[C@]1(O)C(=O)C(C)=C[C@H]12 [SUW406]	8.70
CC=C(C)C(=O)OC1C(C)C2(O)C(C3OC3(COC)C(O)C3(O)C(=O)C(C)=CC32)C2C(C)(C)C12OC(=O)C(C)CC (stereo not drawn) [SUW426]	6.40
C/C=C(\C)C(=O)O[C@@H]1[C@@H](C)[C@@]2(O)[C@@H](C=C(CO)C[C@]3(O)C(=O)C(C)=C[C@@H]23)[C@@H]2C(C)(C)[C@]12OC(=O)[C@@H](C)CC [SUW402]	9.93
CC[C@H](C)C(=O)O[C@@]12[C@H](OC(=O)N3CCCC3)[C@@H](C)[C@@]3(O)[C@H]([C@@H]1C2(C)C)[C@@H]1O[C@]1(CO)[C@@H](O)[C@]1(O)C(=O)C(C)=C[C@H]13 [SUW424]	7.56
CC=C(C)C(=O)OC1C(C)C2(O)C(C3OC3(CO)CC3(O)C(=O)C(C)=CC32)C2C(C)(C)C12OC(=O)C(C)CC (stereo not drawn) [SUW403]	8.10
C/C=C(\C)C(=O)O[C@@H]1[C@@H](C)[C@@]2(O)[C@H]([C@@H]3C(C)(C)[C@]13OC(=O)N1CCCC1)[C@@H]1O[C@]1(CO)[C@@H](O)[C@]1(O)C(=O)C(C)=C[C@H]12 [SUW421]	7.70

----------
Biological target: PKC-β-I (Homo sapiens, UniProt P05771)
Construct: purchased Invitrogen
Assay: Cell-free PKC competition binding assay against 3H-PDBu
Details: Fig. 7A; PKC-β over PKC-δ
Experimental: With a diverse library of compounds bearing unique functionalities on the A-, B-, and C-rings (Fig. 6), we began to explore how these modifications affect PKC binding (Fig. 7A), NF-κB activation (Fig. 7B), cell permeation and PKC translocation (Fig. 7, C and D), and latency reversal in J-Lat cells (Fig. 8). […] The protein kinase C (PKC) affinity of EBC-46 and EBC-46 analogs was determined via […]
measurementType: PKC-β selectivity

smilesStr	endpointResult
C/C=C(\C)C(=O)O[C@@H]1[C@@H](C)[C@]2(O)[C@@H]3C=C(C)C(=O)[C@@]3(O)[C@H](O)C(CO)=C[C@H]2[C@@H]2C(C)(C)[C@]12OC(=O)[C@@H](C)CC	2.9
C/C=C(\C)C(=O)O[C@@H]1[C@@H](C)[C@@]2(O)[C@H]([C@@H]3C(C)(C)[C@]13OC(=O)[C@H](C)CC)[C@@H]1O[C@]1(CO)[C@@H](O)[C@]1(O)C(=O)C(C)=C[C@H]12	1.6
C/C=C(\C)C(=O)O[C@@H]1[C@@H](C)[C@@]2(O)[C@H]([C@@H]3C(C)(C)[C@]13OC(=O)N1CCCC1)[C@@H]1O[C@]1(CO)[C@@H](O)[C@]1(O)C(=O)C(C)=C[C@H]12	9.5

----------
Overview of reported decrease in PKC binding affinity / potency compared to EBC-46 across a group of compounds:
Molecular target: PKC-β-I (Homo sapiens, UniProt P05771)
Construct: purchased Invitrogen
Assay: Cell-free PKC competition binding assay against 3H-PDBu
Conditions: PKC-β and PKC-δ
measurementType: decrease in PKC binding affinity / potency compared to EBC-46

smilesStr	endpointResult
CC[C@H](C)C(=O)O[C@@]12[C@H](OC(=O)N3CCCC3)[C@@H](C)[C@@]3(O)[C@H]([C@@H]1C2(C)C)[C@@H]1O[C@]1(CO)[C@@H](O)[C@]1(O)C(=O)C(C)=C[C@H]13	> 10 fold
C/C=C(\C)C(=O)O[C@@H]1[C@@H](C)[C@@]2(O)[C@H]([C@@H]3C(C)(C)[C@]13OC(=O)N1CCCC1)[C@@H]1O[C@]1(CO)[C@@H](O)[C@]1(O)C(=O)C(C)=C[C@H]12	> 10 fold

----------
Molecular target: PKC-β-I (Homo sapiens, UniProt P05771)
Construct: purchased Invitrogen
Test: Cell-free PKC competition binding assay against 3H-PDBu

molecule	censoringOperator	selectivity for PKC-β over PKC-δ, fold
C/C=C(\C)C(=O)O[C@@H]1[C@@H](C)[C@@]2(O)[C@H]([C@@H]3C(C)(C)[C@]13OC(=O)Cc1cccc3ccccc13)[C@@H]1O[C@]1(CO)[C@@H](O)[C@]1(O)C(=O)C(C)=C[C@H]12 [SUW431]	=	1.4
CC[C@H](C)C(=O)O[C@@]12[C@H](OC(=O)N3CCCC3)[C@@H](C)[C@@]3(O)[C@H]([C@@H]1C2(C)C)[C@@H]1O[C@]1(CO)[C@@H](O)[C@]1(O)C(=O)C(C)=C[C@H]13 [SUW424]	=	6
CC[C@H](C)C(=O)O[C@@]12[C@H](OC(C)(C)C)[C@@H](C)[C@@]3(O)[C@H]([C@@H]1C2(C)C)[C@@H]1O[C@]1(CO)[C@@H](O)[C@]1(O)C(=O)C(C)=C[C@H]13 [SUW430]	=	40
C/C=C(\C)C(=O)O[C@@H]1[C@@H](C)[C@@]2(O)[C@H]([C@@H]3C(C)(C)[C@]13OC(=O)c1ccccc1)[C@@H]1O[C@]1(CO)[C@@H](O)[C@]1(O)C(=O)C(C)=C[C@H]12 [SUW428]	>	12
C/C=C(\C)C(=O)O[C@@H]1[C@@H](C)[C@@]2(O)[C@H]([C@@H]3C(C)(C)[C@]13OC(=O)N1CCCC1)[C@@H]1O[C@]1(CO)[C@@H](O)[C@]1(O)C(=O)C(C)=C[C@H]12 [SUW421]	=	10

----------
Molecular target: PKC-δ (Homo sapiens, UniProt Q05655)
Construct: purchased Invitrogen (Sinobiological for the SUW402 experiment)
Sequence (Q05655 whole entry): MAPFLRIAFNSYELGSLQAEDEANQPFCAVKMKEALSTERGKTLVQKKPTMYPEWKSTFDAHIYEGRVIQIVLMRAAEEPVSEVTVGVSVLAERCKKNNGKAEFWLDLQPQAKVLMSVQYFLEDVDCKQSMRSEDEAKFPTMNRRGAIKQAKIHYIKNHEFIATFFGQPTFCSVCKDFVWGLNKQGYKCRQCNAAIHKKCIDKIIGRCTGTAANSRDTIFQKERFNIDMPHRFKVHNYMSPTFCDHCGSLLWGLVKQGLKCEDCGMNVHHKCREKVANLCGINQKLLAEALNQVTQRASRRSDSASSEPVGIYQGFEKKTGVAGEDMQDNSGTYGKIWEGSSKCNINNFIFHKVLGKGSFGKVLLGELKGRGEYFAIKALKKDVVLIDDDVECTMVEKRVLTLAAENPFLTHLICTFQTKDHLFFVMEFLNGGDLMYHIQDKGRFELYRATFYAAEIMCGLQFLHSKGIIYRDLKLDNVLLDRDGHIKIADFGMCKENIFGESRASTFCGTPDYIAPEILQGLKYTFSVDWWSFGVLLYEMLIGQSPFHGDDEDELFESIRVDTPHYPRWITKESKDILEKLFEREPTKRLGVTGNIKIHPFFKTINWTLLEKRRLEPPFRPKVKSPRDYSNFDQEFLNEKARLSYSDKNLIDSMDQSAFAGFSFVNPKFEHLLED
Experiment: Cell-free PKC competition binding assay against 3H-PDBu
Conditions: competition against radiolabeled PDBu; Fig. 7A and text; read-out: Ki PKC-δ
pKi: −log10 of the molar value.

compound	pKi
CC[C@H](C)C(=O)O[C@@]12[C@H](OC(=O)N3CCCC3)[C@@H](C)[C@@]3(O)[C@H]([C@@H]1C2(C)C)[C@@H]1O[C@]1(CO)[C@@H](O)[C@]1(O)C(=O)C(C)=C[C@H]13	6.77
C/C=C(\C)C(=O)O[C@@H]1[C@@H](C)[C@]2(O)[C@@H]3C=C(C)C(=O)[C@@]3(O)[C@H](O)C(CO)=C[C@H]2[C@@H]2C(C)(C)[C@]12OC(=O)[C@@H](C)CC	8.60
C/C=C(\C)C(=O)O[C@@H]1[C@@H](C)[C@@]2(O)[C@@H](C=C(CO)C[C@]3(O)C(=O)C(C)=C[C@@H]23)[C@@H]2C(C)(C)[C@]12OC(=O)[C@@H](C)CC	9.36
CC[C@H](C)C(=O)O[C@@]12[C@H](OC(C)(C)C)[C@@H](C)[C@@]3(O)[C@H]([C@@H]1C2(C)C)[C@@H]1O[C@]1(CO)[C@@H](O)[C@]1(O)C(=O)C(C)=C[C@H]13	7.22
C/C=C(\C)C(=O)O[C@@H]1[C@@H](C)[C@@]2(O)[C@H]([C@@H]3C(C)(C)[C@]13OC(=O)C1CCC1)[C@@H]1O[C@]1(CO)[C@@H](O)[C@]1(O)C(=O)C(C)=C[C@H]12	8.12
CC=C(C)C(=O)OC1C(C)C2(O)C(C3OC3(CO)CC3(O)C(=O)C(C)=CC32)C2C(C)(C)C12OC(=O)C(C)CC (centres unmarked)	7.68
C/C=C(\C)C(=O)O[C@@H]1[C@@H](C)[C@@]2(O)[C@H]([C@@H]3C(C)(C)[C@]13OC(=O)[C@@H](C)CC)[C@@H]1O[C@]1(CO)[C@@H](O)[C@]1(O)C(=O)C(C)=C[C@H]12 [EBC-46, Tigilanol tiglate]	8.49
CC[C@H](C)C(=O)O[C@@]12[C@H](OC(=O)C3(C)CC3)[C@@H](C)[C@@]3(O)[C@H]([C@@H]1C2(C)C)[C@@H]1O[C@]1(CO)[C@@H](O)[C@]1(O)C(=O)C(C)=C[C@H]13	8.01

----------
Molecular target: PKC-δ (Homo sapiens)
Construct: purchased Invitrogen (Sinobiological for the SUW402 experiment)
Assay: Cell-free PKC competition binding assay against 3H-PDBu
Conditions: HotNM 5; HotKdNM 0.72; read-out: Ki (best-fit value), PKC-δ
measurementType: Ki (nM)

>>> print(df.to_string())
                                   molecule  measurementtype  endpointresult
0  CC=C(C)C(=O)OC1C(C)C2(O)C(C3OC3(COC)C(O)C3(O)C(=O)C(C)=CC32)C2C(C)(C)C12OC(=O)C(C)CC (stereo not shown)               Ki             702
